Reference source for all entries: ChEMBL document CHEMBL4732242

target-entity: Homeodomain-interacting protein kinase 1 (Homo sapiens)
Sequence (Q86Z02 whole entry): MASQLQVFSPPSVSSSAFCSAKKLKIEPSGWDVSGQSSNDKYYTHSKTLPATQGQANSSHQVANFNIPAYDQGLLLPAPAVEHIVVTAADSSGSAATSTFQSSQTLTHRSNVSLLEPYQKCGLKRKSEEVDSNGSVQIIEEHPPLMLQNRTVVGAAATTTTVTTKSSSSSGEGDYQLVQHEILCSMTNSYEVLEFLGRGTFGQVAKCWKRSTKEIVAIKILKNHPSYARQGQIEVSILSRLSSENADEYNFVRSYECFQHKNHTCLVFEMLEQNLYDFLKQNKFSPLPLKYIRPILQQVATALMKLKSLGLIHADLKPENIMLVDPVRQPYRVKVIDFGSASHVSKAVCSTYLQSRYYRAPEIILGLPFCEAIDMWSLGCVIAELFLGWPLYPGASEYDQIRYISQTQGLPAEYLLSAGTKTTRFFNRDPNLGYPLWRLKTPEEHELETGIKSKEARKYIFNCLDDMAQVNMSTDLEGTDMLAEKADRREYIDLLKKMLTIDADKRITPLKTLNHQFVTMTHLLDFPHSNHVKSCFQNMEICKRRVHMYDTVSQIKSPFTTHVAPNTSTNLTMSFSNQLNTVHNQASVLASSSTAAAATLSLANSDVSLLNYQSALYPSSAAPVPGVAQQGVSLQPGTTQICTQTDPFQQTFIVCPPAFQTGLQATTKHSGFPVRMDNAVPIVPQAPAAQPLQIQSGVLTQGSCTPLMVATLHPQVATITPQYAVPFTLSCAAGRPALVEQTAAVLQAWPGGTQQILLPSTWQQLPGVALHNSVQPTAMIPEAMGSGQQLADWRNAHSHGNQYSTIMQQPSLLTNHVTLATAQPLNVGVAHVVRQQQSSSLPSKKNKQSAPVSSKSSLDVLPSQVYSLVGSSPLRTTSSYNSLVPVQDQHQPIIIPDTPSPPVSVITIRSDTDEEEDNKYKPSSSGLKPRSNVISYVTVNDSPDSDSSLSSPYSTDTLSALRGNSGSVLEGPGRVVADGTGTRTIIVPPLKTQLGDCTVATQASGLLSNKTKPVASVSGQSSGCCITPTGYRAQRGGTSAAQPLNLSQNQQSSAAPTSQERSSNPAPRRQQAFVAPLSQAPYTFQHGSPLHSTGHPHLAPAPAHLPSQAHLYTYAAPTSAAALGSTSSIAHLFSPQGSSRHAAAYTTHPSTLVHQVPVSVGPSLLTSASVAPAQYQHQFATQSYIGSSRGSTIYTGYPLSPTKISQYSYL
protocol-summary: Inhibition of human recombinant HIPK1 using myelin substrate by radiometric scintillation assay
parameter: IC50 (nM)

• c1ccc(Cc2ccc(-c3coc4ccc(-c5cn[nH]c5)nc34)cc2)cc1 = 921
• Cn1cc(-c2coc3ccc(-c4cn[nH]c4)nc23)cn1 = 235
• c1ccc2cc(-c3coc4ccc(-c5cn[nH]c5)nc34)ccc2c1 = 16
• CN1CCC(c2cccc(-c3coc4ccc(-c5cnn(C)c5)nc34)c2)CC1 = 354
• Cn1cc(-c2ccc3occ(-c4cccc(-c5cn[nH]c5)c4)c3n2)cn1 = 177
• COc1ccc(-c2coc3ccc(-c4cn[nH]c4)nc23)cc1 = 33
• C=C(C)c1ccc(-c2coc3ccc(-c4cn[nH]c4)nc23)cc1 = 51
• Cn1cc(-c2cccc(-c3coc4ccc(-c5cnn(C)c5)nc34)c2)cn1 = 209
• c1ccc(-c2coc3ccc(-c4cn[nH]c4)nc23)cc1 = 62
• CC(C)(C)c1ccc(-c2coc3ccc(-c4cn[nH]c4)nc23)cc1 = 248
• CC(C)(C)c1ccc(-c2coc3ccc(-c4nn[nH]n4)nc23)cc1 = 545

----------
target-entity: Dual specificity protein kinase CLK1 (Homo sapiens, UniProt P49759)
Sequence (P49759 whole entry): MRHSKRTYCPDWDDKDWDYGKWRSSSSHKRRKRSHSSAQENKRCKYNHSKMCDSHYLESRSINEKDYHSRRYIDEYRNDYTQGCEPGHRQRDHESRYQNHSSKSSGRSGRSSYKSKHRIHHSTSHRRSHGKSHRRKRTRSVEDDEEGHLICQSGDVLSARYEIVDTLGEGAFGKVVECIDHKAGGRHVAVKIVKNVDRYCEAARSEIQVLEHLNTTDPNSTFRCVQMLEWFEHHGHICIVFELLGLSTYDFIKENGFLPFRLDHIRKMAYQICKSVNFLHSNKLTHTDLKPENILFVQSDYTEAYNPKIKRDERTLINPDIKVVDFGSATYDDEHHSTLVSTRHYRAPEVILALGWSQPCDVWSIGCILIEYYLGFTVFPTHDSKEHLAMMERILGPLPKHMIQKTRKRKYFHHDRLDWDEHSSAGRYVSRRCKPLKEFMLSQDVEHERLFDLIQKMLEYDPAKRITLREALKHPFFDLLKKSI
protocol-summary: Inhibition of human recombinant CLK1 using ERMRPRKRQGSVR substrate by radiometric scintillation assay
pIC50: −log10 of the molar value.
Please mark 1 if the recorded pIC50 is equal to or greater than 7, and 0 if it falls below.

* Cn1cc(-c2ccc3occ(-c4cccc(-c5cn[nH]c5)c4)c3n2)cn1 | 1
* CC(C)(C)c1ccc(-c2coc3ccc(-c4cc[nH]n4)nc23)cc1 | 0
* CC(C)(C)c1ccc(-c2coc3ccc(-c4cnsc4)nc23)cc1 | 0
* CC(C)(C)c1ccc(-c2coc3ccc(-c4nn[nH]n4)nc23)cc1 | 0
* CC(C)(C)c1ccc(-c2coc3ccc(-c4cnn(CCN5CCOCC5)c4)nc23)cc1 | 0
* CC(C)(C)c1ccc(-c2coc3ccc(-c4cn[nH]c4)nc23)cc1 | 0
* Cn1cc(-c2ccc3occ(-c4ccc(C(C)(C)C)cc4)c3n2)nn1 | 0
* Cn1cc(-c2cccc(-c3coc4ccc(-c5cnn(C)c5)nc34)c2)cn1 | 1
* c1n[nH]cc1-c1ccc2occ(-c3ccc(C45CC6CC(CC(C6)C4)C5)cc3)c2n1 | 0
* CN1CCC(c2cccc(-c3coc4ccc(-c5cnn(C)c5)nc34)c2)CC1 | 0
* c1ccc(Cc2ccc(-c3coc4ccc(-c5cn[nH]c5)nc34)cc2)cc1 | 0
* CC1(c2ccc(-c3coc4ccc(-c5cn[nH]c5)nc34)cc2)CC1 | 0
* Cn1cc(-c2ccc3occ(-c4cccc(C5CCNCC5)c4)c3n2)cn1 | 1
* Cn1cc(-c2ccc3occ(-c4cccc(-c5cc[nH]n5)c4)c3n2)cn1 | 1
* Cn1ccc(-c2ccc3occ(-c4ccc(C(C)(C)C)cc4)c3n2)n1 | 0
* c1n[nH]cc1-c1ccc2occ(-c3ccc(C4CCCCC4)cc3)c2n1 | 0
* CC(C)Cc1ccc(-c2coc3ccc(-c4cn[nH]c4)nc23)cc1 | 0
